Measured Target: UniProt:Q96RI1
Sequence (Q96RI1 whole entry, species assumed): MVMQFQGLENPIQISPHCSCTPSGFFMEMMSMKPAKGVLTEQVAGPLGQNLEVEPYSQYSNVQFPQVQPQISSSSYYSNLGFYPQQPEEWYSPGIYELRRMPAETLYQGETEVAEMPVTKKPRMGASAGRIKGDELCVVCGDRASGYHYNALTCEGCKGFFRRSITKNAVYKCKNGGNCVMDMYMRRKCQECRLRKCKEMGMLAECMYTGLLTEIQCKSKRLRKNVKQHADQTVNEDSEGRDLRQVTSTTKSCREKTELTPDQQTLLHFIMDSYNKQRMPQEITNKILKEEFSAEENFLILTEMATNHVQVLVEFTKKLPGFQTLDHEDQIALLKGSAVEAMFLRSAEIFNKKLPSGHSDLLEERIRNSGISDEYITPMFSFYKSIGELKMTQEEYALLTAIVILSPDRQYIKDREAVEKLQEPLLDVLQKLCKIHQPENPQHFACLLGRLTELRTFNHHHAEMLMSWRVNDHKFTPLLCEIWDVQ
Assay Overview: FXR Agonist Assay (Gaussia luciferase reporter in cells)
Run Parameters: 20 hours incubation, 10-point dilution, duplicate
Value Type: EC50

CC(C)OC(=O)C1=CN(C(=O)c2ccc(OCCN(C)C)cc2)CC(C)(C)c2c(C(F)(F)F)n[nH]c21 [Compound 1]
200 to 1000 nM
CC(C)OC(=O)C1=CN(C(=O)c2ccc(OCCN3CCN(C)CC3)cc2)CC(C)(C)c2c(C(F)(F)F)n[nH]c21 [Compound 3]
200 to 1000 nM
CC(C)OC(=O)C1=CN(C(=O)c2ccc(OCCN3CCCC3)cc2)CC(C)(C)c2c(C(F)(F)F)n[nH]c21 [Compound 4]
1000 to 10000 nM

State its EC50 for this molecule: CC(C)OC(=O)C1=CN(C(=O)c2ccc(OCCn3ccnc3)cc2)CC(C)(C)c2c(C(F)(F)F)n[nH]c21 [Compound 2]
< 200 nM

Please list EC50 recorded for the molecule CC(C)OC(=O)C1=CN(C(=O)c2cc(F)c(OCCN3CCOCC3)c(F)c2)CC(C)(C)c2c(C(F)(F)F)n[nH]c21 [Compound 5]
< 200 nM
